The values you see were collected from ChEMBL document CHEMBL5518183.

System: SARS-CoV-2
ASSAY EXPLANATION: Antiviral activity against SARS-CoV-2 B.1.1.7 infected in human Calu-3 cells assessed as inhibition of viral infection measured after 48 hrs by Hoechst 33342 staining based analysis
Format: functional, organism-based
CONDITION SUMMARY: Severe acute respiratory syndrome coronavirus 2, B.1.1.7, Calu-3, 48 h
MEASUREMENT LABEL: pIC50
Note on pIC50: it is the negative log10 of concentration, concentration in mol/L.

Prompt: Test system SARS-CoV-2; read-out pIC50; what value for CS(=O)(=O)N[C@@H](CCC(N)=O)C(=O)N[C@@H](Cc1ccccc1)C(=O)N[C@@H](CCCNC(=N)N)C(=O)c1nc2ccccc2s1 ?
Completion: 8.72

###

Test system: SARS-CoV-2
ASSAY EXPLANATION: Antiviral activity against SARS-CoV-2 infected in African green monkey Vero E6 cells assessed as inhibition of viral replication
Assay type: functional, organism-based
CONDITION SUMMARY: Severe acute respiratory syndrome coronavirus 2, Vero C1008
MEASUREMENT LABEL: pEC50
Note on pEC50: it is the negative log10 of concentration, concentration in mol/L.

Prompt: Fill in the blank: the reported pEC50 of Cc1c(-c2ccc(-c3ccccc3F)cc2)nc2ccc(F)cc2c1C(=O)O [BREQUINAR] is ____.
Completion: 6.91

###

System: Enterovirus A71
ASSAY EXPLANATION: Antiviral activity against human EV71 infected in HEK293 cells assessed as reduction in viral replication at MOI of 1 incubated for 48 hrs by luciferase assay
Assay type: functional, organism-based
CONDITION SUMMARY: Enterovirus A, HEK293, 48 h
MEASUREMENT LABEL: IC50

Prompt: Fill in the blank: the reported IC50 of O=C(CCNC(=O)c1ccc(OC(F)(F)F)cc1)C[C@H]1CCCc2ccccc21 is ____.
Completion: 66 nM

###

Test system: SARS-CoV-2
ASSAY EXPLANATION: Antiviral activity against SARS-CoV-2 […] B.1.351 Beta infected in human Calu-3 cells assessed as reduction of viral growth measured after 48 hrs by luciferase assay
Assay type: functional, organism-based
CONDITION SUMMARY: Severe acute respiratory syndrome coronavirus 2
MEASUREMENT LABEL: IC50 (nM)
Express the result in nM but write the number alone.

Prompt: Fill in the blank: the reported IC50 of CS(=O)(=O)N[C@@H](CCC(N)=O)C(=O)N[C@@H](Cc1ccccc1)C(=O)N[C@@H](CCCNC(=N)N)C(=O)c1nc2ccccc2s1 is ____.
Completion: 1.9

###

ASSAY EXPLANATION: Cytotoxicity against African green monkey Vero cells assessed as reduction in cell growth incubated for 72 hrs by MTT assay
Format: toxicity, cell-based
CONDITION SUMMARY: chlorocebus sabaeus
MEASUREMENT LABEL: CC50 at 72 h (µM)
Express the result in µM but write the number alone.

Prompt: Fill in the blank: the reported CC50 at 72 h of COC(=O)c1c(-c2c(Cl)cccc2Cl)noc1-c1cnn(-c2cccc(Cl)c2)c1C(F)(F)F is ____.
Completion: 5

###

System: Hepatitis C virus
ASSAY EXPLANATION: Antiviral activity against Hepatitis C virus infected in Huh7.5 cells assessed as reduction in viral growth
Type: functional, organism-based, Hepacivirus hominis
MEASUREMENT LABEL: pEC50
Note on pEC50: it is the negative log10 of concentration, concentration in mol/L.

Prompt: Fill in the blank: the reported pEC50 of COCCNC(=O)[C@@H]1C[C@@H](Sc2nc3ccccc3[nH]2)CN1Cc1ccc2c(c1)Cc1ccccc1-2 is ____.
Completion: 8.70
